# Test system: MCF7
# test_details: Anticancer activity against Homo sapiens (human) MCF-7 cells assessed as inhibition of cell survival after 24 hr by MTT assay
# Assay type: functional, cell-based
# assay_context: MCF7, 24 h
Overview of recorded IC50 for various molecules
endpoint: IC50

molecule	endpoint	value
O=C1CSC(c2c[nH]nc2-c2ccc(F)cc2)N1n1c(S)nnc1COc1ccc2ccccc2c1 (stereo not given)	IC50	> 100 µg/mL
O=C1CSC(c2c[nH]nc2-c2ccc(Cl)cc2)N1n1c(S)nnc1COc1ccc2ccccc2c1 (stereo not given)	IC50	100 µg/mL
COc1ccc(-c2n[nH]cc2C2SCC(=O)N2n2c(S)nnc2COc2ccccc2)cc1 (stereo not given)	IC50	85 µg/mL
Cc1ccccc1OCc1nnc(S)n1N1C(=O)CSC1c1c[nH]nc1-c1ccc(Cl)cc1 (stereo not given)	IC50	22 µg/mL
Cc1ccc(OCc2nnc(S)n2N2C(=O)CSC2c2c[nH]nc2-c2ccc(F)cc2)cc1 (stereo not given)	IC50	> 100 µg/mL
O=C1CSC(c2c[nH]nc2-c2ccc(Cl)cc2)N1n1c(S)nnc1COc1cccc2ccccc12 (stereo not given)	IC50	100 µg/mL
COc1ccc(-c2n[nH]cc2C2SCC(=O)N2n2c(S)nnc2COc2ccccc2C)cc1 (stereo not given)	IC50	29 µg/mL
O=C1CSC(c2c[nH]nc2-c2ccc(F)cc2)N1n1c(S)nnc1COc1ccccc1 (stereo not given)	IC50	30 µg/mL
Cc1ccccc1OCc1nnc(S)n1N1C(=O)CSC1c1c[nH]nc1-c1ccc(F)cc1 (stereo not given)	IC50	> 100 µg/mL
COc1ccc(-c2n[nH]cc2C2SCC(=O)N2n2c(S)nnc2COc2ccc(C)cc2)cc1 (stereo not given)	IC50	78 µg/mL

---

# System: MCF7
# test_details: Anticancer activity against Homo sapiens (human) MCF-7 cells assessed as cell survival at 100 ug/ml after 24 hr by MTT assay (reference value: 100%)
# Type: functional
# assay_context: MCF7, 24 h, read-out: Survival

compound	viability at 100 µg/mL (%)
Cc1ccccc1OCc1nnc(S)n1N1C(=O)CSC1c1c[nH]nc1-c1ccc(F)cc1 (stereo not given)	62.1
COc1ccc(-c2n[nH]cc2C2SCC(=O)N2n2c(S)nnc2COc2ccc(C)cc2)cc1 (stereo not given)	43.7
O=C1CSC(c2c[nH]nc2-c2ccc(F)cc2)N1n1c(S)nnc1COc1ccccc1 (stereo not given)	33.6
Cc1ccccc1OCc1nnc(S)n1N1C(=O)CSC1c1c[nH]nc1-c1ccc(Cl)cc1 (stereo not given)	13.2
O=C1CSC(c2c[nH]nc2-c2ccc(Cl)cc2)N1n1c(S)nnc1COc1cccc2ccccc12 (stereo not given)	51.8
Cc1ccc(OCc2nnc(S)n2N2C(=O)CSC2c2c[nH]nc2-c2ccc(F)cc2)cc1 (stereo not given)	71.4
O=C1CSC(c2c[nH]nc2-c2ccc(Cl)cc2)N1n1c(S)nnc1COc1ccc2ccccc2c1 (stereo not given)	50.7
COc1ccc(-c2n[nH]cc2C2SCC(=O)N2n2c(S)nnc2COc2ccccc2C)cc1 (stereo not given)	25.4
COc1ccc(-c2n[nH]cc2C2SCC(=O)N2n2c(S)nnc2COc2ccccc2)cc1 (stereo not given)	46.5
O=C1CSC(c2c[nH]nc2-c2ccc(F)cc2)N1n1c(S)nnc1COc1ccc2ccccc2c1 (stereo not given)	96.5

---

Overview of recorded viability at 1 µg/mL for various compounds
# Tested on: MCF7
# test_details: Anticancer activity against Homo sapiens (human) MCF-7 cells assessed as cell survival at 1 ug/ml after 24 hr by MTT assay (reference value: 100%)
# Assay type: functional
# assay_context: MCF7, 24 h, read-out: Survival

compound	experimental_target	viability at 1 µg/mL, %
Cc1ccc(OCc2nnc(S)n2N2C(=O)CSC2c2c[nH]nc2-c2ccc(F)cc2)cc1 (stereo not given)	MCF7	74.7
O=C1CSC(c2c[nH]nc2-c2ccc(F)cc2)N1n1c(S)nnc1COc1ccc2ccccc2c1 (stereo not given)	MCF7	100
Cc1ccccc1OCc1nnc(S)n1N1C(=O)CSC1c1c[nH]nc1-c1ccc(F)cc1 (stereo not given)	MCF7	83.1
COc1ccc(-c2n[nH]cc2C2SCC(=O)N2n2c(S)nnc2COc2ccccc2C)cc1 (stereo not given)	MCF7	87
O=C1CSC(c2c[nH]nc2-c2ccc(Cl)cc2)N1n1c(S)nnc1COc1cccc2ccccc12 (stereo not given)	MCF7	70.5
O=C1CSC(c2c[nH]nc2-c2ccc(Cl)cc2)N1n1c(S)nnc1COc1ccc2ccccc2c1 (stereo not given)	MCF7	100
COc1ccc(-c2n[nH]cc2C2SCC(=O)N2n2c(S)nnc2COc2ccccc2)cc1 (stereo not given)	MCF7	100
O=C1CSC(c2c[nH]nc2-c2ccc(F)cc2)N1n1c(S)nnc1COc1ccccc1 (stereo not given)	MCF7	69.4
Cc1ccccc1OCc1nnc(S)n1N1C(=O)CSC1c1c[nH]nc1-c1ccc(Cl)cc1 (stereo not given)	MCF7	80.7
COc1ccc(-c2n[nH]cc2C2SCC(=O)N2n2c(S)nnc2COc2ccc(C)cc2)cc1 (stereo not given)	MCF7	95.4
